Cited source for all entries: ChEMBL document CHEMBL3785070

Target: Kappa-type opioid receptor (Homo sapiens, UniProt P41145)
Sequence (P41145 whole entry): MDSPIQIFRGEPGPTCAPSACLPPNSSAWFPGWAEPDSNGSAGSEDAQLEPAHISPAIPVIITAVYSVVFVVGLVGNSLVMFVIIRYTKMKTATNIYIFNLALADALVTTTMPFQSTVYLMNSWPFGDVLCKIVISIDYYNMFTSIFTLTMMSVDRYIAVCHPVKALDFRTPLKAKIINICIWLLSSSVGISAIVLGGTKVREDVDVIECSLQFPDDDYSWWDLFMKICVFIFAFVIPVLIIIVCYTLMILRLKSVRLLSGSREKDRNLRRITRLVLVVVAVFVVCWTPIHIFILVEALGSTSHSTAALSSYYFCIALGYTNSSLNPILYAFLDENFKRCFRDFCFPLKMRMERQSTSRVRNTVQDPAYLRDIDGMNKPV
Experiment: Agonist activity at human kappa opioid receptor expressed in CHO cell membranes by [35S]GTPgammaS binding assay relative to U-69,593
Assay type: functional
Classify by measured Emax: Met if it is equal to or exceeds 20%, Not met if it is smaller.

See these solved cases before continuing.
smiles record | class assignment
O=C1C[C@]23CCN(CC4CC4)[C@H](Cc4ccc(O)cc42)[C@]3(O)CC/C1=C/c1ccccc1 | Met
Oc1ccc2c(c1)[C@]13CCN(CC4CC4)[C@@H](C2)[C@]1(O)Cc1c([nH]c2ccccc12)C3 | Not met
Oc1ccc2c(c1)[C@]13CCN(CC4CC4)[C@H](C2)[C@]1(O)CCc1cc2ccccc2nc1C3 | Met
O=C1C[C@]23CCN(CC4CC4)[C@H](Cc4ccc(O)cc42)[C@]3(O)CC/C1=C\c1ccccc1 | Not met

With those in mind, consider the next compound.
Task: Decide: Emax of Oc1ccc2c(c1)[C@]13CCN(CC4CC4)[C@H](C2)[C@]1(O)CCc1c([nH]c2ccccc12)C3 >= 20%?
Result: Not met

====

The reader will find pKi measurements below, all made with Mu-type opioid receptor (Homo sapiens).
Lab note: report pKi as minus log10 of the concentration in molar units, number only.

Answered cases to consult:
compound | measured value
Oc1ccc2c(c1)[C@]13CCN(CC4CC4)C(C2)[C@]1(O)Cc1cc2ccccc2nc1C3 | 8.14
Oc1ccc2c(c1)[C@]13CCN(CC4CC4)C(C2)[C@]1(O)CCc1c([nH]c2ccccc12)C3 | 8.24
O=C1CCC[C@@]2(O)C3Cc4ccc(O)cc4[C@@]2(CCN3CC2CC2)C1 | 9.16
Oc1ccc2c(c1)[C@]13CCN(CC4CC4)C(C2)[C@]1(O)Cc1c([nH]c2ccccc12)C3 | 7.61
O=C1C[C@]23CCN(CC4CC4)[C@H](Cc4ccc(O)cc42)[C@]3(O)C/C1=C/c1ccccc1 | 8.34

Entry Oc1ccc2c(c1)[C@]13CCN(CC4CC4)C(C2)[C@]1(O)CCc1cc2ccccc2nc1C3 ; assay system Mu-type opioid receptor (Homo sapiens); pKi recorded at 7.75

Value sought: pKi, system Mu-type opioid receptor (Homo sapiens), item O=C1/C(=C/c2ccccc2)C[C@@]2(O)[C@H]3Cc4ccc(O)c5c4[C@@]2(CCN3CC2CC2)[C@H]1O5 [BNTX] . Result: 7.98

====

Biological target: Mu-type opioid receptor (Homo sapiens, UniProt P35372)
Sequence (P35372 whole entry): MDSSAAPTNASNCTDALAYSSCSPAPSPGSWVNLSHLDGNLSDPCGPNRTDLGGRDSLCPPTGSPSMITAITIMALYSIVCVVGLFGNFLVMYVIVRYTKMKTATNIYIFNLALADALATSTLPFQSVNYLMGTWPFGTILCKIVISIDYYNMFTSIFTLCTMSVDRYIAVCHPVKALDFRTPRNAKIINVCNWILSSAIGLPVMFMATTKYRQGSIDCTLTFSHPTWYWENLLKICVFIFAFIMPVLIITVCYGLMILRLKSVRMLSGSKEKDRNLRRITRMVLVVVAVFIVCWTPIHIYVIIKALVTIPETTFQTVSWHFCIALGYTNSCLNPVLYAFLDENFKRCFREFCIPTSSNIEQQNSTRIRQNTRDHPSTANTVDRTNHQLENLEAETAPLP
Test: Agonist activity at human mu opioid receptor expressed in CHO cell membranes by [35S]GTPgammaS binding assay relative to DAMGO
Type: functional
outcome measure: Emax

smiles record | Emax
O=C1C[C@]23CCN(CC4CC4)[C@H](Cc4ccc(O)cc42)[C@]3(O)C/C1=C/c1ccccc1 | 31.8%
O=C1C[C@]23CCN(CC4CC4)[C@H](Cc4ccc(O)cc42)[C@]3(O)CC/C1=C/c1ccccc1 | 38.6%
Oc1ccc2c(c1)[C@]13CCN(CC4CC4)[C@H](C2)[C@]1(O)CCc1c([nH]c2ccccc12)C3 | 23.5%

// switching to the query compound
Value of measured Emax for the entry Oc1ccc2c(c1)[C@]13CCN(CC4CC4)[C@H](C2)[C@]1(O)CCc1cc2ccccc2nc1C3 : 31.2%

====

Target: Mu-type opioid receptor (Homo sapiens, UniProt P35372)
Assay: Agonist activity at human mu opioid receptor expressed in CHO cell membranes by [35S]GTPgammaS binding assay
outcome measure: EC50 (nM)
Only the number, expressed in nM, is required.

smiles record | EC50 (nM)
O=C1C[C@]23CCN(CC4CC4)C(Cc4ccc(O)cc42)[C@]3(O)CC/C1=C/c1ccccc1 | 19.2

Turning now to a further record.
The measured EC50 associated with O=C1C[C@]23CCN(CC4CC4)[C@H](Cc4ccc(O)cc42)[C@]3(O)C/C1=C/c1ccccc1 reads 54.6
